target: tyrosinase (Agaricus bisporus, UniProt C7FF04); construct: purchased Beijing Solarbio Biotechnology Co., Ltd; assay: Enzyme inhibition kinetic assay (enzyme concentration vs. rate, Lineweaver–Burk plots); assay type: biochemical, mushroom; settings: Inhibition Constant KI (mM), YYP 2 mM; enzyme–inhibitor complex
Peptide text beside a SMILES is read from it.
Measured property: Ki (mM)
// units = mM; emit number, no label

QUERY: For the compound shown here, N[C@@H](Cc1ccc(O)cc1)C(=O)N[C@@H](Cc1ccc(O)cc1)C(=O)N1CCC[C@H]1C(=O)O [YYP, Tyr-Tyr-Pro] (H-Tyr-Tyr-Pro-OH; N-terminus and C-terminus assumed) , give the reported Ki.
RESULT: 0.428
